A collection of compounds and their measured Emax
- assayed target: Protein cereblon/Histone acetyltransferase p300 (Homo sapiens, UniProt Q09472+Q96SW2)
- assay method text: PROTAC activity at p300/CRBN in human VCaP cells assessed as maximal protein degradation at 1 uM incubated for 4 hrs by Western blot analysis relative to control
- Assay type: cell-based
- Sequence (Q09472 2-2414 limits assumed): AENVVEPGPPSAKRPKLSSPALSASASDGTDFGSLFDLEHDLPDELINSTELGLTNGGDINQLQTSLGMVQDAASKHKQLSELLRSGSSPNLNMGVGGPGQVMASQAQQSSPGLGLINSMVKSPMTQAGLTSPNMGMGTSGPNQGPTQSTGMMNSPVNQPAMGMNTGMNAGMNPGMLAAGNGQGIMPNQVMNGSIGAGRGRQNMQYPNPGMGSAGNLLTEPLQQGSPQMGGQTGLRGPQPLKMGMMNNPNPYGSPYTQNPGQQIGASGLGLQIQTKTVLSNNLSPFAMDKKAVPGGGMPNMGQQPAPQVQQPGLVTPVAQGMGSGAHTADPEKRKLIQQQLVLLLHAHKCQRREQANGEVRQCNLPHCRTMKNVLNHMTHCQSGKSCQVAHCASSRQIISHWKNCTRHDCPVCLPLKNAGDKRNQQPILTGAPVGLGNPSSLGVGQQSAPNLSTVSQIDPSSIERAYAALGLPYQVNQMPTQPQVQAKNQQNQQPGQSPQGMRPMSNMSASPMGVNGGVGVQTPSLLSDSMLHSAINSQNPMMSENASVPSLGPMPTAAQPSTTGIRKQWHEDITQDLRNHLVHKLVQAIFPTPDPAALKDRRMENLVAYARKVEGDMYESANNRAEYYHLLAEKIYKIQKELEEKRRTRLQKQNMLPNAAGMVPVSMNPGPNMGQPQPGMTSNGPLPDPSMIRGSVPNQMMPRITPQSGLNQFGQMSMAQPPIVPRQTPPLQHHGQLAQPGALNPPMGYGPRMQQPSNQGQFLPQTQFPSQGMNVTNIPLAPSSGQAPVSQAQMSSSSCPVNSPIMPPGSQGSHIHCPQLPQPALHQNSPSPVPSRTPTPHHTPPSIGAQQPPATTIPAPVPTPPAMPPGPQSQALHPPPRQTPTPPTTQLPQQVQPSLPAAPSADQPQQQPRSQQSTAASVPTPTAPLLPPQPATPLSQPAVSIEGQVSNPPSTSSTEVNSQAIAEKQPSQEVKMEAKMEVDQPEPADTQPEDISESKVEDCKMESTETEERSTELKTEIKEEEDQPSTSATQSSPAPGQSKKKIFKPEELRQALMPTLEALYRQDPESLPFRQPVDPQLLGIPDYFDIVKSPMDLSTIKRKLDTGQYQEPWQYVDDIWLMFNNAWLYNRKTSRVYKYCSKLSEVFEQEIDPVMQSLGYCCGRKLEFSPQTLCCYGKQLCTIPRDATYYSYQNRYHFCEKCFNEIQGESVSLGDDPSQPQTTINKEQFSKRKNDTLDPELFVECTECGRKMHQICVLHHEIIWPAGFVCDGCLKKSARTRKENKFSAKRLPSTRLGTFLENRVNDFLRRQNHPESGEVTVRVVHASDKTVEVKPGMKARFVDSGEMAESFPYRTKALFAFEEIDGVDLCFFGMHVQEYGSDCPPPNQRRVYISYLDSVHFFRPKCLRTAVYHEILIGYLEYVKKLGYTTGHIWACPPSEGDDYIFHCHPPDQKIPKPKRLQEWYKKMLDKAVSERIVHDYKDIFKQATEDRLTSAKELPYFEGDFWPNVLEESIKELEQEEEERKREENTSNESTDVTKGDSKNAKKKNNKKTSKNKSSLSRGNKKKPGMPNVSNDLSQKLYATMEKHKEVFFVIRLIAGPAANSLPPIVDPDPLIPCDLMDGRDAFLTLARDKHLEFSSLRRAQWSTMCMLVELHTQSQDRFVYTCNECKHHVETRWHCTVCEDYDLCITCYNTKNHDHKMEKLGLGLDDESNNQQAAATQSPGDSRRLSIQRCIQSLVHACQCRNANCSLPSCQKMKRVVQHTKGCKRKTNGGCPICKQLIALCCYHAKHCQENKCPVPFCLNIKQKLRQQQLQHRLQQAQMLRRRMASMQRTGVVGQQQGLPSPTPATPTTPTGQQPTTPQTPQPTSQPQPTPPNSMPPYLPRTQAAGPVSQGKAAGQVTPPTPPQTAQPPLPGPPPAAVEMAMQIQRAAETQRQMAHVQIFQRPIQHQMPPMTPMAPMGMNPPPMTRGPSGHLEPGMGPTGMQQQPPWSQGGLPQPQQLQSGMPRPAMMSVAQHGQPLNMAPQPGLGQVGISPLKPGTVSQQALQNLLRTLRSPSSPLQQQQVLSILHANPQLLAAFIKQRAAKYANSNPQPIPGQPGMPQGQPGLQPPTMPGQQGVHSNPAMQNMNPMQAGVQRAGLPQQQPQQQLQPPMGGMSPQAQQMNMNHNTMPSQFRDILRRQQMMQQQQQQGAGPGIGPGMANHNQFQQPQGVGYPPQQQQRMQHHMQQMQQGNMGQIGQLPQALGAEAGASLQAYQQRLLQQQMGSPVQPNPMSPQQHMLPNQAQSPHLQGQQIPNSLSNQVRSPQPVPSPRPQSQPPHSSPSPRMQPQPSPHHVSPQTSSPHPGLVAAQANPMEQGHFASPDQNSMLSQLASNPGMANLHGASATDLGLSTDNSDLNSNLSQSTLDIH
- Sequence (Q96SW2 whole entry partner): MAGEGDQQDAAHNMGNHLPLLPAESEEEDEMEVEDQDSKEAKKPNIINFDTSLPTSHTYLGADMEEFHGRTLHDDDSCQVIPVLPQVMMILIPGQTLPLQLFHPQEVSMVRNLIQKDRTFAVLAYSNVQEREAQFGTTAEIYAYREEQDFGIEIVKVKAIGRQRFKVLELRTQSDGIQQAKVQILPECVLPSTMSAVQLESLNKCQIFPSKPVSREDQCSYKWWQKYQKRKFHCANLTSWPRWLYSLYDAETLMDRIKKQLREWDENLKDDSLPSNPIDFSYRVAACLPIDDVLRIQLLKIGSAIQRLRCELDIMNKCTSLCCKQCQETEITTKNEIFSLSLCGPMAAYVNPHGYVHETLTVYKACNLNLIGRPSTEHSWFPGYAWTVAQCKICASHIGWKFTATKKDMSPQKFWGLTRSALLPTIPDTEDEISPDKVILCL

compound	measured property	meas value
CC(=O)N1CCc2c(c(N3CCCc4cc(-c5cnn(C)c5)c(C(F)F)cc43)nn2[C@H]2CC[C@H](CN3CCN(c4cccc5c4C(=O)N(C4CCC(=O)NC4=O)C5=O)CC3)CC2)C1 (stereo partly specified)	Emax	33%
CC(=O)N1CCc2c(c(N3CCCc4cc(-c5cnn(C)c5)c(C(F)F)cc43)nn2C2CCN(C3CCN(c4ccc5c(c4)C(=O)N(C4CCC(=O)NC4=O)C5=O)CC3)CC2)C1 (stereo unspecified)	Emax	> 95%
CC(=O)N1CCc2c(c(N3CCCc4cc(-c5cnn(C)c5)c(C(F)F)cc43)nn2C2CCN(C(=O)CCCNc3cccc4c3C(=O)N(C3CCC(=O)NC3=O)C4=O)CC2)C1 (stereo unspecified)	Emax	93%
CC(=O)N1CCc2c(c(N3CCCc4cc(-c5cnn(C)c5)c(C(F)F)cc43)nn2C2CCN(C(=O)CNc3ccc4c(c3)C(=O)N(C3CCC(=O)NC3=O)C4=O)CC2)C1 (stereo unspecified)	Emax	> 95%
CC(=O)N1CCc2c(c(N3CCCc4cc(-c5cnn(C)c5)c(C(F)F)cc43)nn2C2CCN(C3CN(c4ccc5c(c4)C(=O)N(C4CCC(=O)NC4=O)C5=O)C3)CC2)C1 (stereo unspecified)	Emax	> 95%

Now look at this one.
Return reported Emax; argument: CC(=O)N1CCc2c(c(N3CCCc4cc(-c5cnn(C)c5)c(C(F)F)cc43)nn2C2CCN(C(=O)Nc3cccc4c3C(=O)N(C3CCC(=O)NC3=O)C4=O)CC2)C1 (stereo unspecified)
< 50%

----------
- assay method text: Plasma concentration in CB17 SCID mouse xenografted with human VCaP cells at 1 mg/kg, po measured after 24 hrs by LC-MS/MS analysis
- Type: ADME, organism-based
measured property: concentration at 24 h (ng/mL)
Answer in ng/mL, number only, no unit symbol.

Return reported concentration at 24 h; argument: CC(=O)N1CCc2c(c(N3CCCc4cc(-c5cnn(C)c5)c(C(F)F)cc43)nn2[C@H]2CC[C@H](CN3CCN(c4ccc5c(c4)C(=O)N(C4CCC(=O)NC4=O)C5=O)CC3)CC2)C1 (stereo partly specified)
16

----------
- assay method text: Volume of distribution at steady state in male ICR mouse at 1 mg/kg, iv measured upto 24 hrs by LC-MS/MS analysis
- Type: ADME, organism-based
- measurement conditions: in vivo, read-out: Vdss
measured property: Vd (L/kg)
Answer in L/kg, number only, no unit symbol.

Return reported Vd; argument: CC(=O)N1CCc2c(c(N3CCCc4cc(-c5cnn(C)c5)c(C(F)F)cc43)nn2[C@H]2CC[C@H](CN3CCN(c4ccc5c(c4)C(=O)N(C4CCC(=O)NC4=O)C5=O)CC3)CC2)C1 (stereo partly specified)
0.4

----------
- assay method text: Oral plasma exposure in SCID mouse at 5 mg/kg, po measured after 6 hrs
- Type: ADME, organism-based
- measurement conditions: SCID, plasma
measured property: concentration at 6 h (ng/mL)

compound	measured property	unit descriptor	meas value
CC(=O)N1CCc2c(c(N3CCCc4cc(-c5cnn(C)c5)c(C(F)F)cc43)nn2C2CCN(C(=O)CCCCNc3cccc4c3C(=O)N(C3CCC(=O)NC3=O)C4=O)CC2)C1 (stereo not given)	concentration at 6 h	ng/mL	1.6

[a] CC(=O)N1CCc2c(c(N3CCCc4cc(-c5cnn(C)c5)c(C(F)F)cc43)nn2C2CCN(C3CCN(c4ccc5c(c4)C(=O)N(C4CCC(=O)NC4=O)C5=O)CC3)CC2)C1 (stereo not given)
[b] CC(=O)N1CCc2c(c(N3CCCc4cc(-c5cnn(C)c5)c(C(F)F)cc43)nn2C2CCN(C(=O)CNc3ccc4c(c3)C(=O)N(C3CCC(=O)NC3=O)C4=O)CC2)C1 (stereo not given)
[c] CC(=O)N1CCc2c(c(N3CCCc4cc(-c5cnn(C)c5)c(C(F)F)cc43)nn2C2CCN(C3CC4(CCN(c5ccc6c(c5)C(=O)N(C5CCC(=O)NC5=O)C6=O)CC4)C3)CC2)C1 (stereo not given)
[d] CC(=O)N1CCc2c(c(N3CCCc4cc(-c5cnn(C)c5)c(C(F)F)cc43)nn2C2CCN(C3CC4(C3)CN(c3ccc5c(c3)C(=O)N(C3CCC(=O)NC3=O)C5=O)C4)CC2)C1 (stereo not given)
Order the items by recorded concentration at 6 h; the first position goes to the largest value. Sort the labels as requested; that list is your answer.
c, d, a, b

----------
- assay method text: Plasma concentration in CB17 SCID mouse xenografted with human VCaP cells at 3 mg/kg, po measured after 24 hrs by LC-MS/MS analysis
- Format: ADME, organism-based
measured property: concentration at 24 h (ng/mL)
Answer in ng/mL, number only, no unit symbol.

Return reported concentration at 24 h; argument: CC(=O)N1CCc2c(c(N3CCCc4cc(-c5cnn(C)c5)c(C(F)F)cc43)nn2[C@H]2CC[C@H](CN3CCN(c4ccc5c(c4)C(=O)N(C4CCC(=O)NC4=O)C5=O)CC3)CC2)C1 (stereo partly specified)
21

----------
- assayed target: Protein cereblon/Histone acetyltransferase p300 (Homo sapiens, UniProt Q09472+Q96SW2)
- assay method text: PROTAC activity at p300/CRBN in human VCaP cells assessed as protein degradation incubated for 4 hrs by Western blot analysis
- Assay type: cell-based
measured property: DC50 (nM)

compound	meas value
CC(=O)N1CCc2c(c(N3CCCc4cc(-c5cnn(C)c5)c(C(F)F)cc43)nn2C2CCN(C3CCN(c4ccc5c(c4)C(=O)N(C4CCC(=O)NC4=O)C5=O)CC3)CC2)C1 (stereo not given)	0.6

[1] CC(=O)N1CCc2c(c(N3CCCc4cc(-c5cnn(C)c5)c(C(F)F)cc43)nn2C2CCN(C(=O)CNc3ccc4c(c3)C(=O)N(C3CCC(=O)NC3=O)C4=O)CC2)C1 (stereo not given)
[2] CC(=O)N1CCc2c(c(N3CCCc4cc(-c5cnn(C)c5)c(C(F)F)cc43)nn2[C@H]2CC[C@H](CN3CCN(c4cc5c(cc4F)C(=O)N(C4CCC(=O)NC4=O)C5=O)CC3)CC2)C1 (stereo not given in full)
Hello, I am sorting some records. Could you say if 1 or 2 has the smaller DC50 value? When you have decided, please share the label of that item.
2

----------
- assay method text: Drug exposure in CB17 SCID mouse xenografted with human VCaP cells assessed compound concentration in tumor at 3 mg/kg, po measured after 3 hrs by LC-MS/MS analysis
- Assay type: ADME, organism-based, Neoplasm
- measurement conditions: read-out: Drug uptake
measured property: concentration at 3 h (ng/mL)
Answer in ng/mL, number only, no unit symbol.

Return reported concentration at 3 h; argument: CC(=O)N1CCc2c(c(N3CCCc4cc(-c5cnn(C)c5)c(C(F)F)cc43)nn2[C@H]2CC[C@H](CN3CCN(c4ccc5c(c4)C(=O)N(C4CCC(=O)NC4=O)C5=O)CC3)CC2)C1 (stereo partly specified)
141

----------
- assay method text: Plasma concentration in CB17 SCID mouse xenografted with human VCaP cells at 1 mg/kg, po measured after 3 hrs by LC-MS/MS analysis
- Assay type: ADME, organism-based
measured property: concentration at 3 h (ng/mL)
Answer in ng/mL, number only, no unit symbol.

Return reported concentration at 3 h; argument: CC(=O)N1CCc2c(c(N3CCCc4cc(-c5cnn(C)c5)c(C(F)F)cc43)nn2[C@H]2CC[C@H](CN3CCN(c4ccc5c(c4)C(=O)N(C4CCC(=O)NC4=O)C5=O)CC3)CC2)C1 (stereo partly specified)
95

----------
- assayed target: Bromodomain-containing protein 4 (Homo sapiens, UniProt O60885)
- assay method text: Binding affinity to BRD4 (unknown origin) by SPR assay
measured property: pKd
pKd here is simply -log10 of the concentration when that concentration is written in mol/L.

Return reported pKd; argument: CO[C@H]1CC[C@H](n2c([C@@H]3CCCC(=O)N3c3ccc(F)c(F)c3)nc3cc(-c4c(C)noc4C)ccc32)CC1
6.65

----------
- assay method text: Half life in male ICR mouse at 3 mg/kg, po measured upto 24 hrs by LC-MS/MS analysis
- Type: ADME, organism-based
- measurement conditions: in vivo
measured property: half-life (h)
Answer in h, number only, no unit symbol.

Return reported half-life; argument: CC(=O)N1CCc2c(c(N3CCCc4cc(-c5cnn(C)c5)c(C(F)F)cc43)nn2[C@H]2CC[C@H](CN3CCN(c4ccc5c(c4)C(=O)N(C4CCC(=O)NC4=O)C5=O)CC3)CC2)C1 (stereo partly specified)
2.6

Hello, the source for this data is ChEMBL document CHEMBL5518240, in case you need it.
